Ref: patent US9296725B2

Listing of entries alongside the reported IC50.
Biological target: JAK2 (Homo sapiens, UniProt O60674)
Construct: endogenous in cells
Sequence (O60674 whole entry): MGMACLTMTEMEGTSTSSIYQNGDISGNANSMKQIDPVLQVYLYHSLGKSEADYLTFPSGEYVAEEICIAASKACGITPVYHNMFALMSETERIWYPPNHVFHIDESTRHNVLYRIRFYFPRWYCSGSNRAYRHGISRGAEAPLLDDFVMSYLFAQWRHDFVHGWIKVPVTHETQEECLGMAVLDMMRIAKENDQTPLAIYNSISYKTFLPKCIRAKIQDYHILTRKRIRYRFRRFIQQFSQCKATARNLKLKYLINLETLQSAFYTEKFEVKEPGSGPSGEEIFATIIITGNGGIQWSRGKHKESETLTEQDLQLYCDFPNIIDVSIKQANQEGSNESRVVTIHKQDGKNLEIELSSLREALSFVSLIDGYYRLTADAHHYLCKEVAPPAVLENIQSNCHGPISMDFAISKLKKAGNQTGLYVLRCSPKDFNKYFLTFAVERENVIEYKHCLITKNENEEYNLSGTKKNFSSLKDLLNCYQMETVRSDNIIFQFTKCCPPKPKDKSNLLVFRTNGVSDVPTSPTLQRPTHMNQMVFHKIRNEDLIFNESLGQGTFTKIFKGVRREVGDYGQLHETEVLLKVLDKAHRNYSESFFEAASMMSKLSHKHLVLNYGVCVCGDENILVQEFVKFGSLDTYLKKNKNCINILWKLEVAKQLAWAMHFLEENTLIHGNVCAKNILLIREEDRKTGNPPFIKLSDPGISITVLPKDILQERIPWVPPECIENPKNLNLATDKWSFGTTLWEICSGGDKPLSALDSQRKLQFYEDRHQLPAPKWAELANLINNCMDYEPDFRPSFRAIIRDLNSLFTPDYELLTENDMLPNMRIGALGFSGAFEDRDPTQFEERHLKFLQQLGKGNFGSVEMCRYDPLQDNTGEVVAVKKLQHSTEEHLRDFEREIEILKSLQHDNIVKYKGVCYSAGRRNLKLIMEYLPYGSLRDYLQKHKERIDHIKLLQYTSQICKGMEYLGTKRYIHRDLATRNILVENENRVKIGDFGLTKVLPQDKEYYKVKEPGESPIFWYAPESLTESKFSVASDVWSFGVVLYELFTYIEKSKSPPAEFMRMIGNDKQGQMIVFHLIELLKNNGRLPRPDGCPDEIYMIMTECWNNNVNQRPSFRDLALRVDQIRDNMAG
Assay: Kinobeads assay, JAK2 (competition binding in mixed Molt4/Ramos cell lysate, dot blot detection)
Settings: read-out: JAK2 Band (Kinobeads assay potency, IC50)
Experimental: The compounds of the present invention as described in the previous examples were tested in a Kinobeads™ assay as described for ZAP-70 (WO-A 2007/137867). […] Bound proteins were then eluted and the presence of TYK2 and JAK2 was detected and quantified using specific antibodies in a dot blot procedure and the Odyssey infrared detection system. Dose response curves for individual kinases were generated and IC50 values calculated. […]

Record excerpt, results attached:
CC(C)(C)OC(=O)N1CC2CCC1CN2C(=O)Cn1cc(Nc2ncc(Cl)c(NCc3ccccc3)n2)cn1 (stereo not shown)
1 to 10 µM
CC(C)NC(=O)Cn1cc(Nc2ncc(F)c(NCc3c(F)cc(F)cc3F)n2)cn1
1 to 10 µM
COc1ccc(Cl)c(CNc2nc(Nc3cnn(CC(=O)NC(C)C)c3)ncc2F)c1F
0.1 to 1 µM

Now examine the next entry.
Query: IC50; subject: `[2H]C([2H])(O)C([2H])([2H])n1cc(Nc2ncc(Cl)c(NCc3cccc(OC)c3)n2)cn1` 1 to 10 µM

* * *

Target: TYK2 (Homo sapiens, UniProt P29597)
Construct: endogenous in cells; host or cells: Molt4 (ATCC CRL-1582) and Ramos (ATCC CRL-1596), mixed lysate 1:2
Sequence (P29597 whole entry): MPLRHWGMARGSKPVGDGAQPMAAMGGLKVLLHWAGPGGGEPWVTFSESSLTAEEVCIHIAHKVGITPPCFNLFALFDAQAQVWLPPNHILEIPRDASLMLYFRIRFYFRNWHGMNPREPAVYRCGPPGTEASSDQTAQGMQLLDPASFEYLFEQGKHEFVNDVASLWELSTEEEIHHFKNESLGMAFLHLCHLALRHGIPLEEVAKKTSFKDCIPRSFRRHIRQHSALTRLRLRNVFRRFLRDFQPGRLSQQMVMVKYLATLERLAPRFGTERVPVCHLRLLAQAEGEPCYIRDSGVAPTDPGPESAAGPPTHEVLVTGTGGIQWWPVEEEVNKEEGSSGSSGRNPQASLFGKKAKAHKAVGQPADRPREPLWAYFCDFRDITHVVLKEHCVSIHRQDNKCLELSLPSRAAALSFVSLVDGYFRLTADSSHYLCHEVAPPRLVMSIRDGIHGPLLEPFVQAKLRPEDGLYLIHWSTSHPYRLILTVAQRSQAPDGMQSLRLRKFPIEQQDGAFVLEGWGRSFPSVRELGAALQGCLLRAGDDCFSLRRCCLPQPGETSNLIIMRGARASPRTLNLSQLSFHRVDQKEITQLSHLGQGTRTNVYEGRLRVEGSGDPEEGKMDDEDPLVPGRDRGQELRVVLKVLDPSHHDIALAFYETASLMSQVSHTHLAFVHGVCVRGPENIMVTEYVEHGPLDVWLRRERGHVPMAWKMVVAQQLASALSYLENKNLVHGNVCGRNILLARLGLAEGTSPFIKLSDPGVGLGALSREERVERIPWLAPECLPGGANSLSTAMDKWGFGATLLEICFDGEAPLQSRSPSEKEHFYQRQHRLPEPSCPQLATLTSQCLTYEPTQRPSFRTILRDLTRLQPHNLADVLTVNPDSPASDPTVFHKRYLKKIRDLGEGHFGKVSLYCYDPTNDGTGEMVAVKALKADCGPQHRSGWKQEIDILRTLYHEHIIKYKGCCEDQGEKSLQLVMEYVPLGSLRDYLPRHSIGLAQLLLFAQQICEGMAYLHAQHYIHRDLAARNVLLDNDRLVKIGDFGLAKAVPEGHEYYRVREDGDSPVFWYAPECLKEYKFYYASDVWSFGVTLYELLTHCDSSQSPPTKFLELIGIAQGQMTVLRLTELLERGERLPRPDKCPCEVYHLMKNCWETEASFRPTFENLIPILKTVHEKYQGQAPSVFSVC
Assay: Kinobeads assay, TYK2 (competition binding in mixed Molt4/Ramos cell lysate, dot blot detection)
Conditions: Kinobeads assay, Molt4/Ramos lysate; read-out: TYK2 Band (Kinobeads assay potency, IC50)
pIC50: −log10 of the molar value.
measurementName: pIC50

Record excerpt, results attached:
Cc1cnc(Nc2cnn(CC(=O)NC3CC3)c2)nc1NCc1cccc(F)c1F
7.00 to 8.00
CNC(=O)Cn1cc(Nc2ncc(Cl)c(NCc3cc(F)ccc3S(C)(=O)=O)n2)cn1
7.00 to 8.00
Fc1cc(F)c(CNc2nc(Nc3cnn(CC(F)F)c3)ncc2F)c(F)c1
6.00 to 7.00

Query: pIC50; subject: `CC(C)(C)NC(=O)Cn1cc(Nc2ncc(F)c(NCc3c(F)cc(F)cc3F)n2)cn1` 7.00 to 8.00

Query: pIC50; subject: `Fc1cc(F)c(F)c(CNc2nc(Nc3cnn(CC(F)F)c3)ncc2Cl)c1` 6.00 to 7.00

Query: pIC50; subject: `C[C@@H](CO)NC(=O)Cn1cc(Nc2nccc(NCc3c(F)ccc(C#N)c3F)n2)cn1` ≥ 8.00

Query: pIC50; subject: `N#CCNC(=O)c1cccc(CNc2nc(Nc3cnn(CCO)c3)ncc2Cl)c1` 6.00 to 7.00

Query: pIC50; subject: `O=C(Cn1cc(Nc2nccc(NCc3c(F)cc(F)cc3F)n2)cn1)NC1CC1` 7.00 to 8.00

* * *

Molecular target: TYK2 (Homo sapiens, UniProt P29597)
Construct: endogenous in cells; host or cells: Molt4 (ATCC CRL-1582) and Ramos (ATCC CRL-1596), mixed lysate 1:2
Test: Kinobeads assay, TYK2 (competition binding in mixed Molt4/Ramos cell lysate, dot blot detection)
Settings: Kinobeads assay, Molt4/Ramos lysate; read-out: TYK2 Band (Kinobeads assay potency, IC50)
pIC50: −log10 of the molar value.
measurementName: pIC50

Record excerpt, results attached:
Cc1cnc(Nc2cnn(CC(=O)NC3CC3)c2)nc1NCc1cc(F)cc(F)c1 [Example I-344]
7.00 to 8.00
CS(=O)(=O)c1ccccc1CNc1nc(Nc2cnn(CC(N)=O)c2)ncc1Cl [Example I-450]
6.00 to 7.00
Cn1cc(Nc2ncc(Cl)c(NCc3c(F)cccc3F)n2)cn1 [Example I-175]
7.00 to 8.00
Cn1cc(Nc2ncc(F)c(NCc3cccc(F)c3F)n2)cn1 [Example I-177]
6.00 to 7.00

Query: pIC50; subject: OCCn1cc(Nc2ncc(Cl)c(NCc3ccccc3)n2)cn1 [Example I-192] 7.00 to 8.00
